- Test system: Trichoderma virens ATCC 9645
- Assay: growth yield (OD600) with compound + IPBC relative to untreated control; higher = less growth inhibition
- Details: compound concentration: 100 uM; IPBC concentration: 200 ng/ml; 40 h
Structures can show the parent of a compound that is named as a salt. Out of some 1,300 compounds screened, about 130 (10%) showed an effect of 50% or more. The full list was thinned out, with strong results kept by preference.
Observable: growth yield (%)
Expressed in %, but write only the number.

Summary for this compound, CN1C[C@H](C(=O)N[C@]2(C)O[C@@]3(O)[C@@H]4CCCN4C(=O)[C@H](Cc4ccccc4)N3C2=O)C[C@@H]2c3cccc4[nH]cc(c34)C[C@H]21 [Dihydroergotamine tartrate] + CCCCNC(=O)OCC#CI [3-iodo-2-propynyl butylcarbamate (IPBC)] : growth yield is 105

So for CO[C@]12C[C@@H](COC(=O)c3cncc(Br)c3)CN(C)[C@@H]1Cc1cn(C)c3cccc2c13 [Nicergoline] + CCCCNC(=O)OCC#CI [3-iodo-2-propynyl butylcarbamate (IPBC)] , the logged growth yield turned out to be 74.2

For C[C@@H]1C[C@@H]([C@H](O)CC2CC(=O)NC(=O)C2)C(=O)[C@@H](C)C1 [Cycloheximide] + CCCCNC(=O)OCC#CI [3-iodo-2-propynyl butylcarbamate (IPBC)] the compound record lists growth yield as 34.3

Input CN1C[C@H](CNC(=O)OCc2ccccc2)C[C@@H]2c3cccc4c3c(cn4C)C[C@H]21 [Metergoline] + CCCCNC(=O)OCC#CI [3-iodo-2-propynyl butylcarbamate (IPBC)] . Output growth yield: 45.4

* * *

- Test system: Trichoderma virens ATCC 9645
- Assay: growth yield (OD600) with compound + IPBC relative to untreated control; higher = less growth inhibition
- Details: compound concentration: 100 uM; IPBC concentration: 200 ng/ml; 40 h
Structures can show the parent of a compound that is named as a salt. Hit rate of the full screen: of about 1,300 compounds, about 130 (10%) showed an effect of 50% or more. For the sample, strong results were picked, then their nearest neighbours and some compounds at random.
Observable: growth yield (%)
Express your answer in %, writing the number without its unit.

INSERT INTO results (molecule, measured_number) VALUES
  ('Nc1nc2c(ncn2COCCO)c(=O)[nH]1 [Acyclovir] + CCCCNC(=O)OCC#CI [3-iodo-2-propynyl butylcarbamate (IPBC)]', 100),
  ('CC(C)NCC(O)COc1ccc(CCOCC2CC2)cc1 (stereo not given) [Betaxolol hydrochloride] + CCCCNC(=O)OCC#CI [3-iodo-2-propynyl butylcarbamate (IPBC)]', 90.2),
  ('CN1CCC2(C)c3cc(O)ccc3N(C)C12 (single isomer, unassigned; (-)) [(-)-Eseroline fumarate salt] + CCCCNC(=O)OCC#CI [3-iodo-2-propynyl butylcarbamate (IPBC)]', 85);

Per the reported Trichoderma virens ATCC 9645 data, CCC(=O)O[C@]1(C(=O)CCl)[C@@H](C)C[C@H]2[C@@H]3CCC4=CC(=O)C=C[C@]4(C)[C@@]3(F)[C@@H](O)C[C@@]21C [Clobetasol propionate] + CCCCNC(=O)OCC#CI [3-iodo-2-propynyl butylcarbamate (IPBC)] has growth yield of 109

Form field growth yield for item Nc1nc2c(ncn2COC(CO)CO)c(=O)[nH]1 [Ganciclovir] + CCCCNC(=O)OCC#CI [3-iodo-2-propynyl butylcarbamate (IPBC)] on Trichoderma virens ATCC 9645: 99.9
